Recorded values, source paper PMC3794980.

testTarget: DRB3*0101 (Homo sapiens, UniProt P01903+P79483)
experimentDescription: biochemical
resultType: IC50
Answer with the figure and its unit, nothing else.

Form: Entry = CC[C@H](C)[C@H](NC(=O)[C@@H]1CCCN1C(=O)[C@H](CO)NC(=O)CNC(=O)[C@H](CO)NC(=O)[C@@H](NC(=O)CNC(=O)[C@@H]1CCCN1C(=O)[C@H](CCCCN)NC(=O)[C@H](Cc1ccccc1)NC(=O)[C@H](CC(=O)O)NC(=O)[C@H](CC(C)C)NC(=O)[C@H](C)NC(=O)[C@@H](NC(=O)[C@H](C)N)[C@@H](C)CC)[C@@H](C)O)C(=O)O [NS3 125-139] | System = DRB3*0101 (Homo sapiens, UniProt P01903+P79483) | IC50 = ____ 9.22 µM

Try CC[C@H](C)[C@H](NC(=O)[C@@H]1CCCN1C(=O)[C@H](CC(C)C)NC(=O)CNC(=O)[C@@H](N)CCCCN)C(=O)N[C@@H](CCCNC(=N)N)C(=O)N[C@@H](Cc1ccc(O)cc1)C(=O)N[C@@H](CCC(N)=O)C(=O)N[C@H](C(=O)N[C@H](C(=O)N[C@@H](C)C(=O)N[C@H](C(=O)N[C@@H](CCCCN)C(=O)N[C@@H](CO)C(=O)N[C@@H](CCC(=O)O)C(=O)O)[C@@H](C)O)[C@@H](C)O)[C@@H](C)O [NS3 237-251] next. 19 µM

One more compound: CC[C@H](C)[C@H](NC(=O)[C@H](CC(C)C)NC(=O)[C@H](CCCNC(=N)N)NC(=O)CNC(=O)[C@@H](N)CC(N)=O)C(=O)N[C@H](C(=O)N[C@@H](C)C(=O)N[C@@H](CC(N)=O)C(=O)N1CCC[C@H]1C(=O)N[C@H](C(=O)N[C@H](C(=O)N[C@H](C(=O)N[C@@H](CCCCN)C(=O)N[C@@H](CCCCN)C(=O)N[C@@H](CCC(=O)O)C(=O)O)[C@@H](C)O)C(C)C)C(C)C)[C@@H](C)O [Envelope 346-360] 18.3 µM

---

testTarget: DRB3*0101 (Homo sapiens, UniProt P01903+P79483)
experimentDescription: biochemical
resultType: IC50 (µM)
// units = µM; emit number, no label

Record request: IC50 value, item `CC[C@H](C)[C@H](NC(=O)[C@H](CC(=O)O)NC(=O)[C@@H](N)CC(C)C)C(=O)N[C@@H](CCC(=O)O)C(=O)N[C@@H](CC(C)C)C(=O)N[C@@H](CCC(N)=O)C(=O)N[C@@H](CCCCN)C(=O)N[C@H](C(=O)N[C@@H](CCC(=O)O)C(=O)N[C@@H](C)C(=O)N[C@H](C(=O)N[C@@H](CCC(N)=O)C(=O)N[C@@H](CC(C)C)C(=O)N[C@@H](C)C(=O)N[C@H](C(=O)O)[C@@H](C)O)[C@@H](C)O)[C@@H](C)O` 3.33

---

testTarget: DRB5*0101 (Homo sapiens, UniProt P01903+Q30154)
experimentDescription: biochemical
pIC50: −log10 of the molar value.
# binarize pIC50: threshold 6 inclusive, high side T, low side F

For this molecule, is measured pIC50 6 or higher? `CC[C@H](C)[C@H](N)C(=O)NCC(=O)N[C@@H](CCCCN)C(=O)N[C@@H](CCSC)C(=O)N[C@@H](Cc1ccccc1)C(=O)N[C@@H](CCC(=O)O)C(=O)N[C@@H](C)C(=O)N[C@H](C(=O)N[C@@H](C)C(=O)N[C@@H](CCCNC(=N)N)C(=O)NCC(=O)N[C@@H](C)C(=O)N[C@@H](CCCNC(=N)N)C(=O)N[C@@H](CCCNC(=N)N)C(=O)N[C@@H](CCSC)C(=O)O)[C@@H](C)O` T

Quick one: `CC[C@H](C)[C@H](NC(=O)[C@H](CC(C)C)NC(=O)[C@H](CC(=O)O)NC(=O)[C@H](CCCCN)NC(=O)[C@@H](N)CCCCN)C(=O)N[C@@H](CO)C(=O)N[C@@H](Cc1ccc(O)cc1)C(=O)NCC(=O)NCC(=O)NCC(=O)N[C@@H](Cc1c[nH]c2ccccc12)C(=O)N[C@@H](CCCNC(=N)N)C(=O)N[C@@H](CC(C)C)C(=O)N[C@@H](CO)C(=O)N[C@@H](C)C(=O)O` T

Would you kindly repeat that for `CC[C@H](C)[C@H](NC(=O)[C@H](CC(C)C)NC(=O)[C@H](CO)NC(=O)CNC(=O)[C@H](CS)NC(=O)[C@H](Cc1c[nH]c2ccccc12)NC(=O)[C@H](CCC(N)=O)NC(=O)[C@H](CC(=O)O)NC(=O)[C@H](CCC(=O)O)NC(=O)[C@H](CCCNC(=N)N)NC(=O)[C@H](CCCCN)NC(=O)CNC(=O)[C@H](CC(C)C)NC(=O)[C@@H](N)Cc1ccc(O)cc1)C(=O)NCC(=O)N[C@@H](CC(C)C)C(=O)N[C@H](C(=O)O)[C@@H](C)O` ? F

---

Please go through the items and note down their IC50.
testTarget: DRB1*0901 (Homo sapiens, UniProt P01903+P01911, A100R/A103E/D57H/D86V/F55Y/F60I/F76Y/I96F/K127E/L162R/M171V/P40D/Q125H/Q99R/R33Q/R42F/S133A/S66N/T210M/V115G/W38K/Y107V/Y59G/Y89S)
experimentDescription: biochemical
Format: binding
Your answer should be a plain number; it is taken to be in nM.

Look up IC50 for this molecule: `CC[C@H](C)[C@H](NC(=O)[C@H](C)NC(=O)[C@H](CC(N)=O)NC(=O)[C@H](CO)NC(=O)[C@H](C)NC(=O)[C@H](CC(C)C)NC(=O)[C@H](CCCNC(=N)N)NC(=O)[C@H](CC(C)C)NC(=O)[C@H](CC(=O)O)NC(=O)[C@H](CCCNC(=N)N)NC(=O)[C@H](CCCNC(=N)N)NC(=O)[C@H](Cc1c[nH]cn1)NC(=O)[C@H](Cc1ccccc1)NC(=O)[C@H](Cc1ccc(O)cc1)NC(=O)[C@@H](N)CCSC)C(=O)O` 61

Also, `CC[C@H](C)[C@H](NC(=O)[C@H](C)N)C(=O)N[C@@H](CCC(N)=O)C(=O)N[C@@H](CCC(N)=O)C(=O)N[C@H](C(=O)N[C@@H](CCCNC(=N)N)C(=O)N[C@@H](CO)C(=O)N[C@@H](CC(C)C)C(=O)N[C@H](C(=O)NCC(=O)N[C@@H](CC(N)=O)C(=O)N[C@@H](CCC(=O)O)C(=O)N[C@@H](CCC(=O)O)C(=O)N[C@@H](Cc1ccccc1)C(=O)N[C@@H](CC(C)C)C(=O)N[C@@H](CC(=O)O)C(=O)N[C@@H](Cc1ccc(O)cc1)C(=O)O)[C@@H](C)CC)C(C)C` please. 66

---

testTarget: DRB4*0101 (Homo sapiens, UniProt P01903+P13762, G164S)
experimentDescription: biochemical
Field: pIC50. Provide a value for each of the compounds that follow.
The scale used: pIC50 is minus the common logarithm of the concentration in molar units.

I would be grateful if you could share the reported pIC50 for `CC[C@H](C)[C@H](NC(=O)[C@H](CC(C)C)NC(=O)[C@H](CCCNC(=N)N)NC(=O)CNC(=O)[C@@H](N)CC(N)=O)C(=O)N[C@H](C(=O)N[C@@H](C)C(=O)N[C@@H](CC(N)=O)C(=O)N1CCC[C@H]1C(=O)N[C@H](C(=O)N[C@H](C(=O)N[C@H](C(=O)N[C@@H](CCCCN)C(=O)N[C@@H](CCCCN)C(=O)N[C@@H](CCC(=O)O)C(=O)O)[C@@H](C)O)C(C)C)C(C)C)[C@@H](C)O` . 5.52

Cool, now `C[C@H](NC(=O)[C@H](Cc1c[nH]c2ccccc12)NC(=O)[C@@H](NC(=O)[C@H](CCCCN)NC(=O)[C@H](Cc1ccc(O)cc1)NC(=O)[C@@H]1CCCN1C(=O)[C@H](CC(N)=O)NC(=O)[C@H](CCC(=O)O)NC(=O)[C@H](CC(=O)O)NC(=O)[C@H](CC(=O)O)NC(=O)[C@H](Cc1ccc(O)cc1)NC(=O)[C@H](Cc1c[nH]cn1)NC(=O)[C@H](Cc1c[nH]c2ccccc12)NC(=O)[C@@H](N)[C@@H](C)O)[C@@H](C)O)C(=O)N[C@@H](Cc1ccc(O)cc1)C(=O)N[C@@H](Cc1c[nH]cn1)C(=O)NCC(=O)O` 4.81

Same lookup for `CC[C@H](C)[C@H](NC(=O)[C@H](Cc1ccc(O)cc1)NC(=O)CNC(=O)[C@H](CC(C)C)NC(=O)[C@H](CCCCN)NC(=O)[C@H](Cc1c[nH]cn1)NC(=O)[C@@H](N)CC(C)C)C(=O)N[C@@H](CC(C)C)C(=O)N[C@@H](CCCNC(=N)N)C(=O)N[C@@H](CC(=O)O)C(=O)N[C@H](C(=O)N[C@@H](CO)C(=O)N[C@@H](CCCCN)C(=O)N[C@H](C(=O)N1CCC[C@H]1C(=O)NCC(=O)NCC(=O)O)[C@@H](C)CC)[C@@H](C)CC` , please. 7.24

Okay, and `CC[C@H](C)[C@H](NC(=O)[C@H](CC(C)C)NC(=O)[C@H](CCCCN)NC(=O)CNC(=O)[C@H](CO)NC(=O)[C@@H](NC(=O)[C@@H](NC(=O)[C@@H](NC(=O)[C@@H](NC(=O)[C@H](CCCNC(=N)N)NC(=O)[C@H](CC(C)C)NC(=O)[C@@H](N)CO)[C@@H](C)O)[C@@H](C)O)[C@@H](C)O)C(C)C)C(=O)N[C@@H](Cc1c[nH]cn1)C(=O)N[C@@H](CCC(=O)O)C(=O)N[C@@H](Cc1c[nH]c2ccccc12)C(=O)O` ? 5.27

Follow-up item: `CSCC[C@H](NC(=O)[C@@H](NC(=O)[C@H](CCC(N)=O)NC(=O)[C@H](Cc1ccccc1)NC(=O)[C@H](CC(N)=O)NC(=O)[C@H](CCCCN)NC(=O)[C@@H]1CCCN1C(=O)[C@@H](N)CC(N)=O)[C@@H](C)O)C(=O)N1CCC[C@H]1C(=O)NCC(=O)N[C@H](C(=O)N[C@@H](Cc1ccccc1)C(=O)N[C@@H](CCC(N)=O)C(=O)N[C@H](C(=O)N[C@H](C(=O)O)[C@@H](C)O)[C@@H](C)O)[C@@H](C)O` 6.07
